Parameter Activity: see the listing below.
system: Rotala indica; experiment: Herbicidal activity against Rotala indica at 4 kg/ha treated as foliar application at post-emergence after 3 weeks; assay type: functional
property: Activity

> print(dat)
                            chemical.string  data.value
1  Cc1nc(N(C=O)Cc2ccc(Cl)cc2)nc(C(F)(F)F)n1        100%
2       CCCc1nc(C)nc(N(C=O)Cc2ccc(Cl)cc2)n1        100%
3           Cc1nc(NCc2ccccc2)nc(C(F)(F)F)n1         76%
4     Cc1nc(C(F)F)nc(N(C=O)Cc2ccc(Cl)cc2)n1        100%
5  Cc1nc(N(C=O)Cc2ccc(Cl)cc2)nc(C(F)(F)C(F)(F)F)n1        100%
6  CCCC(=O)N(Cc1ccccc1)c1nc(C)nc(C(F)(F)F)n1         26%
7       Cc1nc(NCc2ccc(Cl)cc2)nc(C(F)(F)F)n1         91%

Data origin, for the record: ChEMBL document CHEMBL3046323
